Molecular target: angiotensin II receptor (rabbit aortic rings) (Oryctolagus cuniculus)
Construct: The thoracic aorta was removed, cleaned of adherent fat and connective tissue and then cut into 3-mm ring segments; from tissue; host or cells: rabbit thoracic aorta rings, endothelium removed
Sequence (P34976 1-359): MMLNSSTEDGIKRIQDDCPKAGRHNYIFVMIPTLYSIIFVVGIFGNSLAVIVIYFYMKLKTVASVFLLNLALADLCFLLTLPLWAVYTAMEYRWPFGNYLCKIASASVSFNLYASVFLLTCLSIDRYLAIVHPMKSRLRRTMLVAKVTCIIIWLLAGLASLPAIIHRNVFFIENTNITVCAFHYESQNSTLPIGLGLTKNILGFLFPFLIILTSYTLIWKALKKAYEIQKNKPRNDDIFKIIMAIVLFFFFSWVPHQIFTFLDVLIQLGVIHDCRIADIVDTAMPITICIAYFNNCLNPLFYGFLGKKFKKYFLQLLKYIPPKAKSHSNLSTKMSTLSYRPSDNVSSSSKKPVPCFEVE
Experiment: Assay B: In vitro Vascular Smooth Muscle Response for AII (rabbit aortic rings, pA2)
Type: cell-based
Conditions: two determinations given as a/b
Measured Kb by item
I'd appreciate it if you wrote the number followed by its unit.

Example molecules with recorded Kb:
{"columns": ["molecule", "Kb"],
 "data": [
  ["CCCCc1nn(C(=O)CCC)c(=O)n1Cc1ccc(-c2ccccc2-c2nn[nH]n2)cc1 [Compound 95]", "6.31 nM"],
  ["CCCCc1cn(-c2ccccc2Cl)c(=O)n1Cc1ccc(-c2ccccc2-c2nnn[nH]2)cc1 [Compound 135]", "3.16 nM"],
  ["CCCCc1nn(CCCc2ccccc2)c(=O)n1Cc1ccc(-c2ccccc2-c2nn[nH]n2)cc1 [Compound 81]", "10 nM"],
  ["CCCCc1ncn(Cc2ccc(-c3ccccc3-c3nnn[nH]3)cc2)n1 [Compound 54]", "955 nM"]
]}

// query # query: Kb of entry CCCCCCn1nc(CCCC)n(Cc2ccc(-c3ccccc3-c3nn[nH]n3)cc2)c1=O [Compound 85]
// result 1.26 nM

// query # query: Kb of entry CCCCc1nc(CCCC)n(Cc2ccc(-c3ccccc3-c3nnn[nH]3)cc2)n1 [Compound 3]
// result 2 nM

// query # query: Kb of entry CCCCc1nc2c(O)nnc(CCC)c2n1Cc1ccc(-c2ccccc2-c2nn[nH]n2)cc1 [Compound 114]
// result 398 nM

// query # query: Kb of entry CCCCc1nn(C(CC(=O)OCC)C(=O)c2ccccc2)c(=O)n1Cc1ccc(-c2ccccc2-c2nn[nH]n2)cc1 (stereo not shown) [Compound 101]
// result 15.8 nM

// query # query: Kb of entry CCCCCn1nc(CCCC)n(Cc2ccc(-c3ccccc3-c3nn[nH]n3)cc2)c1=O [Compound 90]
// result 1 nM
